- STUDY_TARGET: ATP-binding cassette transporter A1 (ABCA1) (UniProt P41233 1-2261, limits assumed); note: test concentration or dose not given here
- Sequence (P41233 whole entry): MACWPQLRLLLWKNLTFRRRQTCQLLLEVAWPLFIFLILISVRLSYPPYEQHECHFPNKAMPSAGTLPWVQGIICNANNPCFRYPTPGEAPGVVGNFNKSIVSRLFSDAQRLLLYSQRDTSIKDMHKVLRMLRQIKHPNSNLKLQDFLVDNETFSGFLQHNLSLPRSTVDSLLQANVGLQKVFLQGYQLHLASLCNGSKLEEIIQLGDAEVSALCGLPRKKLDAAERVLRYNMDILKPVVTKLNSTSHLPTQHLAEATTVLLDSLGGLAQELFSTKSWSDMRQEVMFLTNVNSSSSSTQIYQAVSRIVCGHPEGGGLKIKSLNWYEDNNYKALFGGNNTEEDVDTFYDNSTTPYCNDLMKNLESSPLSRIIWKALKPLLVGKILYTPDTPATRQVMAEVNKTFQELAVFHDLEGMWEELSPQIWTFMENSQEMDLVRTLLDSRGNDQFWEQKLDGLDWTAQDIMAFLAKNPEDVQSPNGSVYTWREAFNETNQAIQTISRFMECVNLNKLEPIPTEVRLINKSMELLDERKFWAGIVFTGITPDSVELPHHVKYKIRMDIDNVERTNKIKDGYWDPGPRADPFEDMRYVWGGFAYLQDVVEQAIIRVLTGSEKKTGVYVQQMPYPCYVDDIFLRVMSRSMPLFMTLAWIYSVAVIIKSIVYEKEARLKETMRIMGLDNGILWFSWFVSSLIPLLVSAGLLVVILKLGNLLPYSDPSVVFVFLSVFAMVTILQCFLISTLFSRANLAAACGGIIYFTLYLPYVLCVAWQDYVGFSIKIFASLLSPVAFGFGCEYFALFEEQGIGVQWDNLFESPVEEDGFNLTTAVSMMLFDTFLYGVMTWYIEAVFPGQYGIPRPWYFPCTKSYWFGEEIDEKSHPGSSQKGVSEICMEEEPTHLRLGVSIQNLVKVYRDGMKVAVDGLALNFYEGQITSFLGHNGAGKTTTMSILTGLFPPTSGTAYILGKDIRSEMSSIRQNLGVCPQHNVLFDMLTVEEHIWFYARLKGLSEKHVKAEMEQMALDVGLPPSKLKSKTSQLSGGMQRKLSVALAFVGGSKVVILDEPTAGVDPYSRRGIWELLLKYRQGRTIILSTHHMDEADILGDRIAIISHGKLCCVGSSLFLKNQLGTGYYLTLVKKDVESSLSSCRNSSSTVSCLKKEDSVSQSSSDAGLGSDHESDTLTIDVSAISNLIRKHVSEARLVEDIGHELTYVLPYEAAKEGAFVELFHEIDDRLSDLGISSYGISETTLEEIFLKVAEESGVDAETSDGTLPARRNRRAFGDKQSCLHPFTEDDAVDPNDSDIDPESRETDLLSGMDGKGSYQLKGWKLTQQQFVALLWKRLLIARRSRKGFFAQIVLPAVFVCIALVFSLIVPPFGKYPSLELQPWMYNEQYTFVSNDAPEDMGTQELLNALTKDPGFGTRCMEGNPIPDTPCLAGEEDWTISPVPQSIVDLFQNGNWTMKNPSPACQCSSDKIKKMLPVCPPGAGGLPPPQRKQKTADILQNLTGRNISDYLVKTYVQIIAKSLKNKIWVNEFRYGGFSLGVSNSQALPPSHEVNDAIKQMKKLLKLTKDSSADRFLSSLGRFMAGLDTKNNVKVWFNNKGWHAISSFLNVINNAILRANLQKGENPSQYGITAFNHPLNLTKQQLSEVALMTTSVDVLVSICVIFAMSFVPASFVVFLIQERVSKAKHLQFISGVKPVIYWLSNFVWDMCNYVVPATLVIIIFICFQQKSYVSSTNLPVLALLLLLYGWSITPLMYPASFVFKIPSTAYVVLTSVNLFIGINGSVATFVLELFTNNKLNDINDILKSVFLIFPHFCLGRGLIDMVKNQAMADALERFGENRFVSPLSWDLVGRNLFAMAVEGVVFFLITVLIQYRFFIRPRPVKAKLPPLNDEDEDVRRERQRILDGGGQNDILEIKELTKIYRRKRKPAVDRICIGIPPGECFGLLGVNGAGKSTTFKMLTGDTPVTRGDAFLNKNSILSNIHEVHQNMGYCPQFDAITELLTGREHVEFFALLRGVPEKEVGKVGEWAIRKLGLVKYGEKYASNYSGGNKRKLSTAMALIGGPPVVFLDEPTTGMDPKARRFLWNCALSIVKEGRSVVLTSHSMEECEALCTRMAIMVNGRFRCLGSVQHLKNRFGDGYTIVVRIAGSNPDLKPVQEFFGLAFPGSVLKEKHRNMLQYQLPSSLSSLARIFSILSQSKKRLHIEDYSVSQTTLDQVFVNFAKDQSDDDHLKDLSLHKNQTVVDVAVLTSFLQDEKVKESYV
- PROTOCOL_NOTES: cell-based or functional assay
MEASURE_NAME: % cholesterol efflux/8 hours, Plus cAMP (%)
Entry rule: numbers only, all in %.

Example results:
[
  {
    "BINDER": "ELREKLEAWRELFEEFFARFKS [N356-2]",
    "RECORDED_MEASUREMENT": 6.52
  },
  {
    "BINDER": "ELREKLEAWFELFAEFFARFKS [N356-4]",
    "RECORDED_MEASUREMENT": 4.25
  },
  {
    "BINDER": "ELREKLEAWFELFAEFFARF [N356-6]",
    "RECORDED_MEASUREMENT": 4.04
  },
  {
    "BINDER": "ELREKLEAWFELFAEFFARFK [N356-5]",
    "RECORDED_MEASUREMENT": 5.97
  }
]

Q. Would you kindly share the measured % cholesterol efflux/8 hours, Plus cAMP for ELREKLEAWFELFEEFFARFKS [N356-3] ?
A. 3.94

Q. Item under review: ELRAKLEAWFEAFAEFFARF [N356-7] . Reported % cholesterol efflux/8 hours, Plus cAMP?
A. 7

Q. Entry ELREKLEAWFEAFEEFFARFKS [N356-1] : reported % cholesterol efflux/8 hours, Plus cAMP = ?
A. 4.16
